- study system: SSTR5 (Homo sapiens, UniProt P35346)
- Sequence (P35346 whole entry, species assumed): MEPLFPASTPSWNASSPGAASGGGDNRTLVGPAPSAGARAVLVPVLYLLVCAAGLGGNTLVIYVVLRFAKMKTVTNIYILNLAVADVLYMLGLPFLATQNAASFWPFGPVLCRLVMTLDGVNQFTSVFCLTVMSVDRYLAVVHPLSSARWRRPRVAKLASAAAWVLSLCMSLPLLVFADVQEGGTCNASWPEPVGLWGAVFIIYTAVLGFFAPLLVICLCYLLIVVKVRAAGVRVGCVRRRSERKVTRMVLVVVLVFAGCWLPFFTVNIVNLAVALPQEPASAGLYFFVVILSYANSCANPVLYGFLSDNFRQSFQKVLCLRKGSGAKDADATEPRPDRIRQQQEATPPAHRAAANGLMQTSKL
- run description: SSTR5 binding (R5 Bnd)
attribute measured: IC50 (nM)

Example entries begin here.
CCOc1cc(CN2CC[C@H]3C(NC(=O)Nc4cccc(C)c4)CC[C@H]32)cc(OCC)c1-c1ccc(F)cc1 (some centres unmarked); 4.99
CCOc1cc(CN2CC[C@H]3C(NC(=O)c4cncnc4)CC[C@H]32)cc(OCC)c1-c1ccc(F)cc1 (some centres unmarked); 148
CCOc1cc(CN2CC[C@H]3C(Nc4nc5cc(S(=O)(=O)/N=C/N(C)C)ccc5o4)CC[C@H]32)cc(OCC)c1-c1ccc(F)cc1 (some centres unmarked); 2.07
Cc1cncc(C(=O)N[C@H]2CC[C@@H]3[C@H]2CCN3Cc2cccc(-c3ccccc3)c2)c1; 124
CCOc1cc(CN2CC[C@H]3C(NC(=O)c4cccc(C)c4)CC[C@H]32)cc(OCC)c1-c1ccc(F)cc1 (stereo in doubt) [Example 63]; 1.72
CCOc1cc(CN2CC[C@H]3C(NC(=O)OCc4ccccc4)CC[C@H]32)cc(OCC)c1-c1ccc(F)cc1 (some centres unmarked); 1.44

A. CCOc1cc(CN2CC[C@H]3C(Nc4nc5ccc(C(=O)O)cc5o4)CC[C@H]32)cc(OCC)c1-c1ccc(F)cc1 (some centres unmarked)
B. CCOc1cc(CN2CC[C@H]3C(NC(=O)c4cccc(C)c4)CC[C@H]32)cc(OCC)c1-c1ccc(F)cc1 (stereo in doubt) [Example 81]
C. CCOc1cc(CN2CC[C@H]3C(NC(=O)c4cnc5cc(Cl)ccc5c4O)CC[C@H]32)cc(OCC)c1-c1ccc(F)cc1 (some centres unmarked)
D. CCOc1cc(CN2CC[C@H]3C(NC(=O)c4ccc5[nH]c(C)nc5c4)CC[C@H]32)cc(OCC)c1-c1ccc(F)cc1 (some centres unmarked)
E. CCOc1cc(CN2CC[C@H]3C(Nc4nc5ccc(F)cc5o4)CC[C@H]32)cc(OCC)c1-c1ccc(F)cc1 (some centres unmarked)
List items by IC50 in falling order. Order the labels as requested and give them as your answer.
D, C, E, B, A
(D: 53.5 nM, C: 15.8 nM, E: 7.47 nM, B: 5.01 nM, A: 1.29 nM)

P. CCOc1cc(CN2CC[C@H]3C(NC(=O)c4ccc(C)nc4)CC[C@H]32)cc(OCC)c1-c1ccc(F)cc1 (some centres unmarked)
Q. CCOc1cc(CN2CC[C@H]3C(NS(=O)(=O)c4cccc(C)c4)CC[C@H]32)cc(OCC)c1-c1ccc(F)cc1 (some centres unmarked)
Which value of IC50 is smaller, the one for P or the one for Q ? # respond with the chosen item's label
P

Cited source for all entries: patent US8759539B2
